Test system: Estrogen receptor (Bos taurus)
measurement_protocol: Displacement of [3H]estradiol from calf estrogen receptor
endpoint_name: log10 Ka (log10 of the value in M⁻¹)
Lab note - Ka converted to log10 from values in M⁻¹.

In [3]: df
Out[3]:
                                   molecule  endpoint_name  measured
0  CCCC(c1cccc(O)c1)C(CCC)c1cccc(O)c1 (stereo unspecified)       log10 Ka      7.96
1  CCCCC(c1cccc(O)c1)C(CCCC)c1cccc(O)c1 (stereo unspecified)       log10 Ka      7.36
2  CC(c1cccc(O)c1)C(C)c1cccc(O)c1 (stereo unspecified)       log10 Ka      7.04
3  CCC(c1cccc(O)c1)C(CC)c1cccc(O)c1 (stereo in doubt; 20)       log10 Ka      8.30

Please go through the list and note log10 Ka for each molecule.
1. CC(C)CC(c1cccc(O)c1)C(CC(C)C)c1cccc(O)c1 (stereo unspecified)
2. CCCCCC(c1cccc(O)c1)C(CCCCC)c1cccc(O)c1 (stereo unspecified)

1: 5.04; 2: 6.52

---

target_desc: Estrogen receptor (Mus musculus) (UniProt O08537+P19785)
Sequence (O08537 whole entry, looked up): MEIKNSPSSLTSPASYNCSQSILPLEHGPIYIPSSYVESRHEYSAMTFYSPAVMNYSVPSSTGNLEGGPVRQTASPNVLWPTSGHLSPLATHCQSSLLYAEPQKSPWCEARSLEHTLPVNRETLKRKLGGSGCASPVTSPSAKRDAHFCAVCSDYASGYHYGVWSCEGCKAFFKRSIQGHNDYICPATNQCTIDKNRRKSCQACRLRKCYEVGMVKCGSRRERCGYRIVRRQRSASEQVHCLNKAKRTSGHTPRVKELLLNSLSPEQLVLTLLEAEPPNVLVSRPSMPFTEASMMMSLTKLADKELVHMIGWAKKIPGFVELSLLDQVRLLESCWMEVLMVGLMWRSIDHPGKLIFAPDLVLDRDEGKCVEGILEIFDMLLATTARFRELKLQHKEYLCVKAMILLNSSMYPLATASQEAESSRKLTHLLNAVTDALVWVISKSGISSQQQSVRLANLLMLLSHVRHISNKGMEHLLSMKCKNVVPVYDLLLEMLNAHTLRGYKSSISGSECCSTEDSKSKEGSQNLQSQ
Sequence (P19785 whole entry, looked up): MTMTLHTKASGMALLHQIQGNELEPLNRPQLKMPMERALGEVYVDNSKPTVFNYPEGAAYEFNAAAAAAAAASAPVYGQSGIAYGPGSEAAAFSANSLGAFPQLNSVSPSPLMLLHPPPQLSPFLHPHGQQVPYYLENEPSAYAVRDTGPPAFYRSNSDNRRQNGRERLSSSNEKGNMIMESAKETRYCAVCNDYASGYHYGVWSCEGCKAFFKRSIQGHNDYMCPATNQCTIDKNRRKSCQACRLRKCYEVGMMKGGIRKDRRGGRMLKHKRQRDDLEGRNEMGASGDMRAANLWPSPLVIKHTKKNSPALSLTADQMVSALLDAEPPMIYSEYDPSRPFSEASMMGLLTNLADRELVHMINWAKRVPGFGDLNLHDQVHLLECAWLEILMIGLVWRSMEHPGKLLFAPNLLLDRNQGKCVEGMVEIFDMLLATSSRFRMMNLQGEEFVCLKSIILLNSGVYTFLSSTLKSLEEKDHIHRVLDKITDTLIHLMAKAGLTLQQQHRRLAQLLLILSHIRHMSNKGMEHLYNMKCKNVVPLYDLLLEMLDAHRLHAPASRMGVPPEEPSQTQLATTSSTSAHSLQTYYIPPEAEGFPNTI
measurement_protocol: Antiestrogenic activity in uterotrophic test in mice at 0 ug
Format: functional
Provide the reported Effect of each item.
Answers are plain numbers.

Illustrative cases are given below, each with its answer.
In [3]: df
Out[3]:
                                   molecule  measured
0  CCCCC(c1cccc(O)c1)C(CCCC)c1cccc(O)c1 (centres undefined)      10.5
1  CC(C)CC(c1cccc(O)c1)C(CC(C)C)c1cccc(O)c1 (centres undefined)      11.4
2  CCCC(c1cccc(O)c1)C(CCC)c1cccc(O)c1 (centres undefined)       9.9

Could you tell me which Effect is on file for CCCCCC(c1cccc(O)c1)C(CCCCC)c1cccc(O)c1 (centres undefined) ?
10.5

---

System: MCF7
measurement_protocol: Inhibition of estrogen receptor positive MCF-7 cell proliferation as percent treated/control cell number after 10 days at 10e-6 M
Type: functional, Homo sapiens
endpoint_name: T/C (%)
Numbers only, in %.

Illustrative cases are given below, each with its answer.
>>> print(df.to_string())
                                   compound  measured
0  CCCC(c1cccc(O)c1)C(CCC)c1cccc(O)c1 (centres undefined)        53
1  CC/C(=C(\c1ccccc1)c1ccc(OCCN(C)C)cc1)c1ccccc1        75
2  CCC(c1cccc(O)c1)C(CC)c1cccc(O)c1 (stereo in doubt; 20)        27

Please turn your attention to the following entry.
Could you tell me which T/C is on file for CC(c1cccc(O)c1)C(C)c1cccc(O)c1 (centres undefined) ?
71

The reported measurements were obtained from ChEMBL document CHEMBL1121898.
